Read-out: Transforming growth factor beta 1 (TGFb1), TGFB1 (gene 7040)
Procedure Details: BSK_BE3C_TGFb1: BioMAP Diversity Plus: BE3C Assay for Transforming growth factor beta 1 (TGFb1) Biomarker Activity (AID 2283036)
Assay Context: primary human bronchial epithelial cells; actives raise or lower the signal
Calls of active or inactive are those of the source. Rule for the calls: active = hit-call score of the fitted dose curve at least 0.9, where 1 is the maximum; inactive = score below 0.9.
Pick from active, inactive when you respond.

Compound | Qualitative Label
O=C1CCCO1 | inactive
CCC[CH2][Sn]([Cl])([CH2]CCC)[CH2]CCC | active
Clc1ccc(C(c2ccc(Cl)cc2)C(Cl)Cl)cc1 | active
O=C(Nc1ccccc1)c1ccccc1I | inactive
Clc1ccc(C(c2ccc(Cl)cc2)C(Cl)(Cl)Cl)cc1 | inactive
COP(=S)(OC)SCN1C(=O)c2ccccc2C1=O | inactive

[ask] Hi, sorry to bother you, what did the test record for Cc1ccc(N)c(N)c1 ?
[reply] inactive

[ask] Hi, sorry to bother you, what did the test record for Cc1ccc(N=C=O)cc1N=C=O ?
[reply] inactive

[ask] Hi, sorry to bother you, what did the test record for CC(C)(O)c1cnn2c(-c3ccc(F)c(-c4c(F)cccc4C#N)c3)cnc2n1 ?
[reply] active

[ask] Hi, sorry to bother you, what did the test record for O=C(Oc1ccc(Br)cc1)N1CCN2CCC1CC2 ?
[reply] inactive

====

Read-out: Intercellular Adhesion Molecule 1 (ICAM1), ICAM1 (gene 3383)
Procedure Details: BSK_KF3CT_ICAM1: BioMAP Diversity Plus: KF3CT Assay for Intercellular Adhesion Molecule 1 (ICAM1) Biomarker Activity (AID 2283067)
Assay Context: primary human keratinocytes with fibroblasts; actives raise or lower the signal
The source made the active and inactive calls. How the source made its calls: active means hit-call score of the fitted dose curve at least 0.9, where 1 is the maximum; inactive means score below 0.9.
Pick from Y (active), N (inactive) when you respond.

A selection of reference data follows.
Compound | Qualitative Label
COc1cc(C=O)cc2c1[C@H](COC(N)=O)[C@]1(OC(C)=O)ON2C[C@H]2[C@@H]1N2C(C)=O | Y
CC(C)N(Cc1ccccc1)C(=O)C(C)(C)C | N
O=P(OCCCl)(OCCCl)OCCCl | N

[ask] Hi, sorry to bother you, what did the test record for O=C(O)C1C2CCC(O2)C1C(=O)O (stereo not given) ?
[reply] N

[ask] Hi, sorry to bother you, what did the test record for c1ccc(C2CO2)cc1 (stereo not given) ?
[reply] N

[ask] Hi, sorry to bother you, what did the test record for Nc1ccc(Cl)cc1N ?
[reply] N

====

Read-out: Interleukin-8 (IL8), CXCL8 (gene 3576)
Procedure Details: BSK_SAg_IL8: BioMAP Diversity Plus: SAg Assay for Interleukin-8 (IL8) Biomarker Activity (AID 2283094)
Assay Context: primary human HUVEC with PBMC; actives raise or lower the signal
The source made the active and inactive calls. How the source made its calls: active means hit-call score of the fitted dose curve at least 0.9, where 1 is the maximum; inactive means score below 0.9.
Pick from y = active, n = inactive when you respond.

A selection of reference data follows.
Smiles Record | Qualitative Label
OCCCBr | n
Clc1ccc(C(c2ccc(Cl)cc2)C(Cl)Cl)cc1 | y
Clc1ccc(Cl)c(Cl)c1 | n
CN(C)c1ccccc1 | n
Nc1ccc(Cl)cc1N | n

[ask] Hi, sorry to bother you, what did the test record for CC(C)(C)OOC(=O)c1ccccc1 ?
[reply] n

[ask] Hi, sorry to bother you, what did the test record for ClC1=C(Cl)[C@]2(Cl)[C@H]3[C@H]([C@@H]4C=C[C@H]3C4)[C@@]1(Cl)C2(Cl)Cl ?
[reply] y

====

Tested On: human Dopamine Transporter (DAT), SLC6A3 (gene 6531)
Procedure Details: NVS_TR_hDAT: NovaScreen (NVS) Transporter Assay for human Dopamine Transporter (DAT) (AID 2283374);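 note: activity means loss of bound radioligand signal relative to DMSO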
Records with an inconclusive call do not appear. Activity calls are given as the source filed them. The calls were made as follows: active = hit-call score of the fitted dose curve at least 0.9, where 1 is the maximum; inconclusive = response in the unintended direction; inactive = score below 0.9.
Measurement Name: AC50

// worked examples, AC50 included
Molecule | AC50
Nc1ccc(N=Nc2ccccc2)cc1 | 2.24 µM (active)
CCC[CH2][Sn]([Cl])([CH2]CCC)[CH2]CCC | 3.59 µM (active)
Nc1ccc(Cc2ccc(N)cc2)cc1 | 9.3 µM (active)
CC(C)(C)C(O)(CCc1ccc(Cl)cc1)Cn1cncn1 (stereo unspecified) | 4.04 µM (active)
O=C(Oc1ccc(Br)cc1)N1CCN2CCC1CC2 | 8.54 µM (active)

Next up:
[ask] Bench note: what AC50 did O=C(N[C@H](c1ccccc1)[C@@H]1CN2CCC1CC2)c1c(Cl)ccc(C(F)(F)F)c1Cl show?
[reply] 23.1 µM (active)

====

Read-out: flavin-containing dimethylaniline monooxygenases 3 (FMO3), FMO3 (gene 2328)
Procedure Details: LTEA_HepaRG_FMO3: Life Technologies and Expression Analysis (LTEA) Assay for flavin-containing dimethylaniline monooxygenases 3 (FMO3) using HepaRG (AID 2283453)
Assay Context: mRNA level, 48 h; actives raise or lower the signal
Active and inactive are the calls of the source. The calls were made as follows: active = hit-call score of the fitted dose curve at least 0.9, where 1 is the maximum; inactive = score below 0.9.
Pick from class 1 (active), class 0 (inactive) when you respond.

Compound | Qualitative Label
Clc1ccc(C(c2ccc(Cl)cc2)C(Cl)(Cl)Cl)cc1 | class 1

[ask] Hi, sorry to bother you, what did the test record for OCCCBr ?
[reply] class 0

[ask] Hi, sorry to bother you, what did the test record for CCOc1cccc(C2(N3CCN(c4ccccc4)CC3)CCC(C)CC2)c1 (stereo unspecified) ?
[reply] class 0

[ask] Hi, sorry to bother you, what did the test record for Cc1ccc(N=C=O)cc1N=C=O ?
[reply] class 1

[ask] Hi, sorry to bother you, what did the test record for CN(C)c1ccc(C(=O)c2ccc(N(C)C)cc2)cc1 ?
[reply] class 1

[ask] Hi, sorry to bother you, what did the test record for CCC(C)c1ccc(O)cc1 (stereo unspecified) ?
[reply] class 0

[ask] Hi, sorry to bother you, what did the test record for CN(C)[C@@H]1C(=O)C(C(N)=O)=C(O)[C@@]2(O)C(=O)C3=C(O)c4c(O)cccc4[C@@](C)(O)[C@H]3C[C@@H]12 ?
[reply] class 0

[ask] Hi, sorry to bother you, what did the test record for c1ccc2c(c1)oc1ccccc12 ?
[reply] class 0

[ask] Hi, sorry to bother you, what did the test record for Nc1cc(Cl)cc(C(=O)O)c1Cl ?
[reply] class 0

[ask] Hi, sorry to bother you, what did the test record for Cc1ccc(N)cc1 ?
[reply] class 0

[ask] Hi, sorry to bother you, what did the test record for O=P(OCCCl)(OCCCl)OCCCl ?
[reply] class 0

[ask] Hi, sorry to bother you, what did the test record for N#CC(Br)Br ?
[reply] class 0

====

Procedure Details: CCTE_Simmons_CellTiterGLO_HEK293T: Viability Assessment in CCTE's Assays for Thyroperoxidase (TPO) Inhibition, Simmons Lab (AID 2283665)
Results filed as inconclusive are left out. The source made the active and inactive calls. The calls were made as follows: active = hit-call score of the fitted dose curve at least 0.9, where 1 is the maximum; inconclusive = response in the unintended direction; inactive = score below 0.9.
Pick from active, inactive when you respond.

Compound | Qualitative Label
Cc1ccc(N)cc1 | inactive
Nc1ccc(Cc2ccc(N)cc2)cc1 | inactive

[ask] Hi, sorry to bother you, what did the test record for C[C@]12C=CC3=C4CCC(=O)C=C4CC[C@H]3[C@@H]1CC[C@@H]2O ?
[reply] active

[ask] Hi, sorry to bother you, what did the test record for CCCCC(CC)COC(=O)c1ccc(C(=O)OCC(CC)CCCC)c(C(=O)OCC(CC)CCCC)c1 (configuration not stated) ?
[reply] inactive

[ask] Hi, sorry to bother you, what did the test record for CN(C)[C@@H]1C(=O)C(C(N)=O)=C(O)[C@@]2(O)C(=O)C3=C(O)c4c(O)cccc4[C@@](C)(O)[C@H]3C[C@@H]12 ?
[reply] inactive

[ask] Hi, sorry to bother you, what did the test record for COC(=O)c1ccccc1N ?
[reply] inactive

[ask] Hi, sorry to bother you, what did the test record for CCC(C)c1ccc(O)cc1 (configuration not stated) ?
[reply] active

====

Read-out: Fatty acid synthase (Homo sapiens) (UniProt P49327)
Sequence (P49327 whole entry, looked up): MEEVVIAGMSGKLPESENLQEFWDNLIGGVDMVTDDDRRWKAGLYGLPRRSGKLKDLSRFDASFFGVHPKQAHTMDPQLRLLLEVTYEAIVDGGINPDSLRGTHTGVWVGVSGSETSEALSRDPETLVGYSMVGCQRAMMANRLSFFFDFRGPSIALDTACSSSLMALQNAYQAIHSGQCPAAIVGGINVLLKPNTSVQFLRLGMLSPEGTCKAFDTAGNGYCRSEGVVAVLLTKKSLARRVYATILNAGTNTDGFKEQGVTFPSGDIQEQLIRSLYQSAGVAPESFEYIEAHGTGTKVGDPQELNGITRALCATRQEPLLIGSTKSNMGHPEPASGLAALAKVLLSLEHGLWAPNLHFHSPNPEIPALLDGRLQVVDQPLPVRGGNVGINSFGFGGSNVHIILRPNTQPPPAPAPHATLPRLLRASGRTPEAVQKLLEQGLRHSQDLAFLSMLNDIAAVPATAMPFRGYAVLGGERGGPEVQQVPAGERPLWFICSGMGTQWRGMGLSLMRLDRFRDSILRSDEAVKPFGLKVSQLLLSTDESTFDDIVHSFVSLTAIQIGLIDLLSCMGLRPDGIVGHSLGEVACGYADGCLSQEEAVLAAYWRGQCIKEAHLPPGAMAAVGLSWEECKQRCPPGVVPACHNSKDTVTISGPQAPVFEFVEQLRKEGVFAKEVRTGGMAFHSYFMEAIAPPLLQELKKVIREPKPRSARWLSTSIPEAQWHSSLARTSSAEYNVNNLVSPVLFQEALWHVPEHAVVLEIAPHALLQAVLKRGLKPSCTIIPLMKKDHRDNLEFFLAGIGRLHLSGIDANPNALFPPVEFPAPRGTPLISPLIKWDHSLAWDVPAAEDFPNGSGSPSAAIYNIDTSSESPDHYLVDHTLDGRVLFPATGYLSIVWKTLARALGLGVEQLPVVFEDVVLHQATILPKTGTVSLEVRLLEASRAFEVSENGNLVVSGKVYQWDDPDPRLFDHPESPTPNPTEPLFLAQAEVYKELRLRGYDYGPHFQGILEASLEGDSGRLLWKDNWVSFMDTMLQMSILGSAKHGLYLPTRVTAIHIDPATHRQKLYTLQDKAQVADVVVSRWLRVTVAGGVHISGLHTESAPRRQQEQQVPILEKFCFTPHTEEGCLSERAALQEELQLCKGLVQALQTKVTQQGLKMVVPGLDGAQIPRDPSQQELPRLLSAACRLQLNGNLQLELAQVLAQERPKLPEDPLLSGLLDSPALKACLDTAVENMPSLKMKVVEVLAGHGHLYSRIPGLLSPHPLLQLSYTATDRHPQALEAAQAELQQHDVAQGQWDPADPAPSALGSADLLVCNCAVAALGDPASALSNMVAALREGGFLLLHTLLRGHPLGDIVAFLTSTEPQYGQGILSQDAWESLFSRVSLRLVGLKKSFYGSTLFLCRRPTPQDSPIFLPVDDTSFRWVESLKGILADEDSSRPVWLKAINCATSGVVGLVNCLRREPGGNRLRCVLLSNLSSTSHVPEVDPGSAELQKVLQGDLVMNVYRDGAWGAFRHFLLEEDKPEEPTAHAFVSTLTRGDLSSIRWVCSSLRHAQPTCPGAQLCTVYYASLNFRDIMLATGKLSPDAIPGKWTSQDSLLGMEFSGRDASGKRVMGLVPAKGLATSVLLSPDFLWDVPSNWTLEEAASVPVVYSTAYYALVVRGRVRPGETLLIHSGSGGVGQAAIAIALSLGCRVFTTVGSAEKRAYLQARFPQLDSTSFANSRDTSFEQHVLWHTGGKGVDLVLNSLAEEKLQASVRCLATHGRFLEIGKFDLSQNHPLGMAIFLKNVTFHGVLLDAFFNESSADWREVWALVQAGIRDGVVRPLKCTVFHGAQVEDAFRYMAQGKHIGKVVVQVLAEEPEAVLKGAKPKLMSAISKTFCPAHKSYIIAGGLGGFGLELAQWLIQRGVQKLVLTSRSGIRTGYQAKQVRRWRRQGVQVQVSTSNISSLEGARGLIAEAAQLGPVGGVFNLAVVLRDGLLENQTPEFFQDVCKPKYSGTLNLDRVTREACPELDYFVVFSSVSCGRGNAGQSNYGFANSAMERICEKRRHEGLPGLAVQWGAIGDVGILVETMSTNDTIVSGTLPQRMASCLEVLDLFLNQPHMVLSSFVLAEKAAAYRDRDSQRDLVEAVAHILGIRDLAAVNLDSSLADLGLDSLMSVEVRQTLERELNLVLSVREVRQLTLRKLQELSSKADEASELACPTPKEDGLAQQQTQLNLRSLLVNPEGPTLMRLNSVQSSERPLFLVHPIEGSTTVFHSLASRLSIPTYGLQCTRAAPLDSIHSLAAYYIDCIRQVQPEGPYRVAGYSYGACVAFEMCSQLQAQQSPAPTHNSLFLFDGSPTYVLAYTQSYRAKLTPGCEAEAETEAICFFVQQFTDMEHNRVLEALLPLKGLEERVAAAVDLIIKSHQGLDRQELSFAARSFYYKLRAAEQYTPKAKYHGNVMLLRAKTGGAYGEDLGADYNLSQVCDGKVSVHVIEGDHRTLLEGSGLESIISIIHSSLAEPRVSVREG
Procedure Details: LTEA_HepaRG_FASN: Life Technologies and Expression Analysis (LTEA) Assay for Fatty Acid Synthase (FASN) using HepaRG (AID 2283448)
Assay Context: mRNA level, 48 h; actives raise or lower the signal
Calls of active or inactive are those of the source. Rule for the calls: active = hit-call score of the fitted dose curve at least 0.9, where 1 is the maximum; inactive = score below 0.9.
Pick from active, inactive when you respond.

A selection of reference data follows.
Molecule | Qualitative Label
CCCCC(CC)COC(=O)c1ccc(C(=O)OCC(CC)CCCC)c(C(=O)OCC(CC)CCCC)c1 (configuration not stated) | inactive
Cc1cccc(N)c1N | active

[ask] Hi, sorry to bother you, what did the test record for O=C(N[C@H](c1ccccc1)[C@@H]1CN2CCC1CC2)c1c(Cl)ccc(C(F)(F)F)c1Cl ?
[reply] active

[ask] Hi, sorry to bother you, what did the test record for Cc1ccc([N+](=O)[O-])cc1 ?
[reply] inactive

[ask] Hi, sorry to bother you, what did the test record for c1ccc(NNc2ccccc2)cc1 ?
[reply] inactive

[ask] Hi, sorry to bother you, what did the test record for c1ccc2c(c1)-c1cccc3cccc-2c13 ?
[reply] active

[ask] Hi, sorry to bother you, what did the test record for Nc1ccc(N=Nc2ccccc2)cc1 ?
[reply] active

[ask] Hi, sorry to bother you, what did the test record for CC(C)(C)C(O)(CCc1ccc(Cl)cc1)Cn1cncn1 (configuration not stated) ?
[reply] active

[ask] Hi, sorry to bother you, what did the test record for [As]#[In] ?
[reply] inactive

[ask] Hi, sorry to bother you, what did the test record for CNC(=O)Oc1cccc2c1OC(C)(C)C2 ?
[reply] inactive

[ask] Hi, sorry to bother you, what did the test record for O=C(O)C1C2CCC(O2)C1C(=O)O (configuration not stated) ?
[reply] active

[ask] Hi, sorry to bother you, what did the test record for O=P(OCCCl)(OCCCl)OCCCl ?
[reply] inactive
